Readings of log10(MIC) for the listed compounds
tested on: Staphylococcus aureus; test: Antimicrobial activity against Staphylococcus aureus MTCC 96 assessed as inhibition of visual microbial growth incubated for 24 hrs at 37 degC; assay type: functional; conditions: MTCC 96, 24 h
All values: base-10 log of MIC in µg/mL.

Illustrative cases are given below, each with its answer.
compound	measured.parameter	value
Cc1ccc(-c2csc(N3N=C(c4cccs4)CC3c3ccc4c(c3)OCO4)n2)cc1 (centres undefined)	log10(MIC)	2.40
Fc1cc(-c2csc(N3N=C(c4cccs4)CC3c3cc4c(cc3Br)OCO4)n2)ccc1Cl (centres undefined)	log10(MIC)	2.10
Fc1ccc(-c2csc(N3N=C(c4cccs4)CC3c3ccc4c(c3)OCO4)n2)cc1 (centres undefined)	log10(MIC)	2.70
N#Cc1ccc(-c2csc(N3N=C(c4cccs4)CC3c3cc4c(cc3Br)OCO4)n2)cc1 (centres undefined)	log10(MIC)	1.80
N#Cc1cccc(-c2csc(N3N=C(c4cccs4)CC3c3cc4c(cc3Br)OCO4)n2)c1 (centres undefined)	log10(MIC)	1.49

Query: Which log10(MIC) reading was recorded for the compound Fc1ccccc1-c1csc(N2N=C(c3cccs3)CC2c2ccc3c(c2)OCO3)n1 (centres undefined) ?
Response: 2.40

Query: Here is the next compound: Clc1ccc(-c2csc(N3N=C(c4cccs4)CC3c3cc4c(cc3Br)OCO4)n2)cc1 (centres undefined)
Response: 2.10

Query: Now consider c1ccc(-c2csc(N3N=C(c4cccs4)CC3c3ccc4c(c3)OCO4)n2)cc1 (centres undefined) and answer again.
Response: 2.70

Query: Clc1ccc(-c2csc(N3N=C(c4cccs4)CC3c3ccc4c(c3)OCO4)n2)cc1 (centres undefined) , same question.
Response: 2.10

----------
tested on: Staphylococcus aureus; test: Antimicrobial activity against Staphylococcus aureus MTCC 96 assessed as inhibition of visual microbial growth incubated for 24 hrs at 37 degC; assay type: functional; conditions: MTCC 96, 24 h
measured.parameter: MIC
// unit must come after the numeric part

Recorded MIC, per entry:
compound	measured.parameter	value
Fc1cc(Cl)ccc1-c1csc(N2N=C(c3cccs3)CC2c2cc3c(cc2Br)OCO3)n1 (stereo not given)	MIC	125 µg/mL
Fc1cc(-c2csc(N3N=C(c4cccs4)CC3c3ccc4c(c3)OCO4)n2)ccc1Cl (stereo not given)	MIC	500 µg/mL
O=[N+]([O-])c1ccc(-c2csc(N3N=C(c4cccs4)CC3c3cc4c(cc3Br)OCO4)n2)cc1 (stereo not given)	MIC	250 µg/mL
O=[N+]([O-])c1ccc(-c2csc(N3N=C(c4cccs4)CC3c3ccc4c(c3)OCO4)n2)cc1 (stereo not given)	MIC	500 µg/mL

Let us move to another entry and its MIC.
Query: Fill in the blank: the reported MIC of Fc1cc(Cl)ccc1-c1csc(N2N=C(c3cccs3)CC2c2ccc3c(c2)OCO3)n1 (stereo not given) is ____.
Response: 250 µg/mL
